System: Hydroxyapatite
methodSummary: Binding affinity to bone mineral hydroxyapatite assessed as residual concentration of compound after 6 hrs
Recorded Activity, one value per entry.
Give just the number in %; leave the unit off.

1. Cc1c(CN(C)CCCC(O)(P(=O)(O)O)P(=O)(O)O)no[n+]1[O-] = 51
2. CN(CCCC(O)(P(=O)(O)O)P(=O)(O)O)Cc1no[n+]([O-])c1C(N)=O = 49
3. O=P(O)(O)C(CCCCOc1no[n+]([O-])c1-c1ccccc1)P(=O)(O)O = 51

Then there is this compound:
Problem: Respond only with Activity recorded for CN(CCCC(O)(P(=O)(O)O)P(=O)(O)O)Cc1nonc1C(N)=O
Solution: 51

Reference for the values: ChEMBL document CHEMBL1156999
